These entries and their values trace back to ChEMBL document CHEMBL1130914.

Target: Thromboxane-A synthase (Homo sapiens, UniProt P24557)
Sequence (P24557 whole entry): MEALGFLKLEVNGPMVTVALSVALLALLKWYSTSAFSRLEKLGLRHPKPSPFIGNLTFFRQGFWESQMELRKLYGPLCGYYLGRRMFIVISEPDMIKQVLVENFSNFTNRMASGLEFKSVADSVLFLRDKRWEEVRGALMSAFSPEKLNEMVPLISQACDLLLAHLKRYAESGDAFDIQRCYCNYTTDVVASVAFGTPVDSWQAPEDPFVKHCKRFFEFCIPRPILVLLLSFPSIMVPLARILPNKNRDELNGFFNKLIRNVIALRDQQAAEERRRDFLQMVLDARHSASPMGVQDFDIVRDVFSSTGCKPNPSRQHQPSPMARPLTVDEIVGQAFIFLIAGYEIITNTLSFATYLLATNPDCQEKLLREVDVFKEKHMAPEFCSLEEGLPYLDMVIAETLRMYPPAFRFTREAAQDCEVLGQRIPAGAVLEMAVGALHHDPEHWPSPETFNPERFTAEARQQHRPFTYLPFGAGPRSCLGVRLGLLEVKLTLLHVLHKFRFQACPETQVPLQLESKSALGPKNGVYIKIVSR
measure name: IC50 (nM)

INSERT INTO assay_data (smiles_data, observed_value) VALUES
  ('O=C(O)CCc1cc(CCNS(=O)(=O)c2ccc(Cl)cc2)cc(Cc2ccncc2)c1', 47);

====

Molecular target: Thromboxane A2 receptor (Rattus norvegicus)
Sequence (P34978 whole entry): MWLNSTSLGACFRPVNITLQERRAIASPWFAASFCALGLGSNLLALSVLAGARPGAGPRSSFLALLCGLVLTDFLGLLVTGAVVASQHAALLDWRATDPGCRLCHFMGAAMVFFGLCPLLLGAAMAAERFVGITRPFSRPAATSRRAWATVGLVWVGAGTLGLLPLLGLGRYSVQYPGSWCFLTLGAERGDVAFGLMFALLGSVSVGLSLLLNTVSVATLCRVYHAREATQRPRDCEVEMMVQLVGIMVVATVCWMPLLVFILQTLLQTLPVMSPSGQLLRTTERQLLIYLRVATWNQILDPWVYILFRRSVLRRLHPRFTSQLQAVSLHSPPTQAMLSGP
Test: In vitro Thromboxane A2 (TXA2) receptor antagonism was tested by its ability to inhibit the contraction of rat aorta induced by the stable thromboxane agonist U-46,619
Format: functional, tissue-based
Settings: read-out: pA2 (converted)
Rule: Kb of 0.04 nM or more gives MET; anything lower gives NOT MET.

INSERT INTO assay_data (compound, discrete_label) VALUES
  ('O=C(O)CCc1cc(CCNS(=O)(=O)c2ccc(Cl)cc2)cc(Cc2ccccc2)c1', 'NOT MET'),
  ('CS(=O)(=O)c1ccc(C(=O)c2cc(CCNS(=O)(=O)c3ccc(Cl)cc3)cc(CCC(=O)O)c2)cc1', 'MET'),
  ('O=C(O)CCc1cccc(CCNS(=O)(=O)c2ccc(Cl)cc2)c1', 'MET'),
  ('CC(c1ccc(F)cc1)c1cc(CCNS(=O)(=O)c2ccc(Cl)cc2)cc(CCC(=O)O)c1 (centres undefined)', 'NOT MET'),
  ('O=C(O)CCc1cc(CCNS(=O)(=O)c2ccc(Cl)cc2)cc(C(O)c2ccc(F)cc2)c1 (centres undefined)', 'MET'),
  ('O=C(O)CCc1cc(CCNS(=O)(=O)c2ccc(Cl)cc2)cc(Cc2ccc(F)cc2)c1', 'NOT MET'),
  ('CS(=O)(=O)c1ccc(Cc2cc(CCNS(=O)(=O)c3ccc(Cl)cc3)cc(CCC(=O)O)c2)cc1', 'MET'),
  ('O=C(O)CCc1cc(CCNS(=O)(=O)c2ccc(Cl)cc2)cc(C(=O)c2ccc(F)cc2)c1', 'MET');

====

Biological target: Thromboxane A2 receptor (Rattus norvegicus)
Experiment: In vitro Thromboxane A2 (TXA2) receptor antagonism was tested by its ability to inhibit the contraction of rat aorta induced by the stable thromboxane agonist U-46,619
Assay type: functional, tissue-based
Details: read-out: pA2 (converted)
Classification field: enter Yes for Kb values not below 0.06 nM, No for values below it.

INSERT INTO results (smiles_data, discrete_label) VALUES
  ('COc1ccccc1Cc1cc(CCNS(=O)(=O)c2ccc(Cl)cc2)cc(CCC(=O)O)c1', 'Yes'),
  ('O=C(O)CCc1cc(CCNS(=O)(=O)c2ccc(Cl)cc2)cc(Cc2cccnc2)c1', 'Yes'),
  ('O=C(O)CCc1cc(CCNS(=O)(=O)c2ccc(Cl)cc2)cc(Cc2ccncc2)c1', 'No'),
  ('COc1ccc(C(=O)c2cc(CCNS(=O)(=O)c3ccc(Cl)cc3)cc(CCC(=O)O)c2)cc1', 'No'),
  ('O=C(O)CCc1cc(CCNS(=O)(=O)c2ccc(Cl)cc2)cc(Cc2cccc(F)c2)c1', 'Yes'),
  ('COc1ccc(Cc2cc(CCNS(=O)(=O)c3ccc(Cl)cc3)cc(CCC(=O)O)c2)cc1', 'No');
